Recorded values, source patent US20170189529A1.

molecular target: hemagglutinin (HA) of influenza B virus B/Malaysia (Victoria lineage) (influenza B virus B/Malaysia/04 …); assay: recombinant HA ELISA (AttoPhos fluorescence, mean of triplicates)
Measured Parameter: fold reactivity over background (fold over background)
One number for each entry, in fold over background.

Example entries and their recorded answers appear below.
TRL854 (antibody, V domains shown) VH: QVQLVESGAEVKKPGASVRVSCKGSGYTFTAYHMHWVRQAPGQGFEWVGWINPNSGATYYTSTFEGRVTMTRDTSITTAYMELSSLRSDDTAVYYCATDIVVERDASLGGFNSYGMDVWGQGTTVTVSS VL: DIEMTQSPLSLPVTPGEPASISCRSSQSLLHSNGYNHLAWYLQKPGRSPHLLIYLASTRASGVPDRFSGSGSGTDFTLKISRVEAEDVGIYYCMQSLQTSITFGQGTRLEIKR
25.6
TRL832 (antibody, V domains shown) VH: QVQLVESGPGLMKPSETLSLTCTVSGGSVSNYYWSWIRQPPGKGLEWIGYVFYSGSSNYNPSLNNPSLKSRVTISIDTSNNQFSLKLSSVTAADTAVYYCARGRVNSGYDWGPNFDSWGQGALVTVSS VL: DIVLTQAPSVSVSPGQTASITCSGDRLGEKFASWYQQKPGQSPVLVIYEDSKRPSGIPDRFSGSNSGNTATLTISGTQIMDEGDFFCQAWDSSTVVFGGGTKLTVLG
25.6

Give the value of fold reactivity over background reported for the following: TRL842 (antibody, V domains shown) VH: QVQLLESGGDVVQPGTSLRLSCAASGFSLWTSGMHWVRQAPGKGLEWVAVMSYDETKKYYADSVRGRFSISRDNSRNTLYLQMNSLRVEDTAVYFCAKPRLDYLDYFHAADSWGQGTLVSVSS VL: DIVLTQPPSVSVAPGQTATITCGGNYIGSKSVNWYQQRPGHAPVLVVYDDSDRPSGIPDRFSGSNSRSTATTATLTISRVEAGDEADYYCQVWETSEDLWVFGGGTKLTVLG
25.6
